target-or-system: Angiopoietin-1 receptor (Homo sapiens);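 further: reported value is the mean TIE2 inhibition from the GSK PKIS dataset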
condition: at 1 µM
recorded-endpoint: inhibition (%)
Respond with the bare value in %.

Noted for `O=C(Nc1n[nH]c2nc(-c3ccco3)c(Br)cc12)C1CC1` : its inhibition reads 13.7

Noted for `COc1ccccc1Nc1ncc(-c2ccccc2)o1` : its inhibition reads 6.44

Noted for `COc1cccc(-n2ncc3c(N/N=C/c4cccc(F)c4)ncnc32)c1` : its inhibition reads 9

Noted for `CS(=O)(=O)CCNCc1ccc(-c2ccc3ncnc(Nc4ccc(OCc5ccccc5)c(Cl)c4)c3c2)o1` : its inhibition reads 9.67

Noted for `COc1cc(C)c(NC(=O)CN(C)C)cc1Nc1nc(Nc2cccc(F)c2C(N)=O)c2cc[nH]c2n1` : its inhibition reads 0.17

Noted for `NC(=O)c1cccc(Nc2nccc(Nc3cccc4[nH]ncc34)n2)c1` : its inhibition reads 47.5

Noted for `CNC(=O)c1cncc(/C=C/c2c(Cl)cccc2Cl)c1` : its inhibition reads 3.57

Noted for `CS(=O)(=O)CCNCc1ccc(-c2ccc3ncnc(Nc4ccc(OCc5cccc(F)c5)c(C(F)(F)F)c4)c3c2)o1` : its inhibition reads 5.67

Noted for `c1cnn2ncc(-c3ccnc(Nc4ccc5c(c4)OCCO5)n3)c2c1` : its inhibition reads 20.5

Noted for `Nc1ncnc2occ(-c3ccc(NC(=O)Nc4cc(C(F)(F)F)cc(C(F)(F)F)c4)cc3)c12` : its inhibition reads 77.5

Noted for `[O-][S+]1CCN(Cc2ccc(-c3ccc4ncnc(Nc5ccc(OCc6ccccc6)c(F)c5)c4c3)o2)CC1` : its inhibition reads 2.24

Where do the numbers come from? From ChEMBL document CHEMBL1961873.
